- Target: Muscarinic acetylcholine receptor (Rattus norvegicus) (UniProt P08482+P08483+P08485+P08911+P10980)
- Method description: Evaluated for displacement of [3H]oxotremorine-M binding ([3H]OXO-M) at muscarinic acetylcholine receptor in rat forebrain membranes
- Format: cell membranes
- Set-up: concentration or dose not given beside the values
- Particulars: Membrane
Readout name: Displacement (%)

> print(dat)
                                    molecule  readout.name  endpoint.result
 1                    CC(=O)N(C)CC#CCN1CCCC1  Displacement             94.7
 2           CC(=O)N(C)CC#CCN1CCC(C(=O)O)CC1  Displacement             26.8
 3  CC(=O)N(C)CC#CCN1CCCC(CO)C1 (centres undefined)  Displacement             22.4
 4                   CC(=O)N(C)CC#CCN1CCCCC1  Displacement             68.9
 5  CC(=O)N(C)CC#CCN1CCC[C@H]1CO.O=C(O)C(=O)O  Displacement               25
 6  CCOC(=O)C1CCCN(CC#CCN(C)C(C)=O)C1.O=C(O)C(=O)O (centres undefined)  Displacement             31.2
 7  CC(=O)N(C)CC#CCN1CCC[C@@H]1CO.O=C(O)C(=O)O  Displacement             39.7
 8        CC(=O)N(C)CC#CCN1CCC1.O=C(O)C(=O)O  Displacement               94
 9  CCOC(=O)C1CCCCN1CC#CCN(C)C(C)=O.O=C(O)C(=O)O (centres undefined)  Displacement             24.9
10              CC(=O)N(C)CC#CCN1CCN(CCO)CC1  Displacement             22.3
11      CC(=O)N(C)CC#CCN1CCNCC1.O=C(O)C(=O)O  Displacement             33.8
12  CC(=O)N(C)CC#CCN1CCC(OS(=O)(=O)c2ccc(C)cc2)C1.O=C(O)C(=O)O (centres undefined)  Displacement             64.8
13  CC(=O)N(C)CC#CCN1CCC(O)C1.O=C(O)C(=O)O (centres undefined)  Displacement             39.9
14  CC(=O)N(C)CC#CCN1CCC(CCO)CC1.O=C(O)C(=O)O  Displacement               11
15                CC(=O)N(C)CC#CCN1CCC(O)CC1  Displacement              9.2
16  CC(=O)N(C)CC#CCN1CCC[C@H]1CF.O=C(O)C(=O)O  Displacement             50.5
17  CC(=O)N(C)CC#CCN1CCC(CO)CC1.O=C(O)C(=O)O  Displacement             14.7
18  CC(=O)N(C)CC#CCN1CCCC(O)C1 (centres undefined)  Displacement              9.1
19  CC(=O)N(C)CC#CCN1CCCCC1CO.O=C(O)C(=O)O (centres undefined)  Displacement             20.4
20  CC(=O)N(C)CC#CCN1CCC(OS(C)(=O)=O)C1.O=C(O)C(=O)O (centres undefined)  Displacement             25.2
21  CC(=O)N(C)CC#CCN1CCC(OC(=O)c2ccccc2)C1.O=C(O)C(=O)O (centres undefined)  Displacement             39.1
22  CC(=O)N(C)CC#CCN1CCC[C@@H]1CF.O=C(O)C(=O)O  Displacement             61.5
23  CC(=O)N(C)CC#CCN1CCC(F)C1.O=C(O)C(=O)O (centres undefined)  Displacement             38.1
24  CCOC(=O)C1CCN(CC#CCN(C)C(C)=O)CC1.O=C(O)C(=O)O  Displacement             32.1

----------
- Method description: The percent inhibition of cyclic AMP(cAMP) formation in NG108-15 cells at 100 uM.
- Particulars: Mus musculus
Readout name: inhibition (%)

> print(dat)
                                    molecule  endpoint.result
 1                    CC(=O)N(C)CC#CCN1CCCC1              100
 2           CC(=O)N(C)CC#CCN1CCC(C(=O)O)CC1             17.5
 3  CC(=O)N(C)CC#CCN1CCC(F)C1.O=C(O)C(=O)O (centres undefined)              8.9
 4  CCOC(=O)C1CCCCN1CC#CCN(C)C(C)=O.O=C(O)C(=O)O (centres undefined)             44.1
 5  CC(=O)N(C)CC#CCN1CCCC(O)C1 (centres undefined)              3.4
 6  CC(=O)N(C)CC#CCN1CCC(OS(=O)(=O)c2ccc(C)cc2)C1.O=C(O)C(=O)O (centres undefined)             83.6
 7        CC(=O)N(C)CC#CCN1CCC1.O=C(O)C(=O)O             95.7
 8  CCOC(=O)C1CCCN(CC#CCN(C)C(C)=O)C1.O=C(O)C(=O)O (centres undefined)             23.6
 9  CC(=O)N(C)CC#CCN1CCC(O)C1.O=C(O)C(=O)O (centres undefined)             22.5
10  CC(=O)N(C)CC#CCN1CCC(OS(C)(=O)=O)C1.O=C(O)C(=O)O (centres undefined)             38.5
11  COC[C@@H]1CCCN1CC#CCN(C)C(C)=O.O=C(O)C(=O)O             15.4
12      CC(=O)N(C)CC#CCN1CCNCC1.O=C(O)C(=O)O             16.8
13  CC(=O)N(C)CC#CCN1CCC(CO)CC1.O=C(O)C(=O)O              4.8
14  CC(=O)N(C)CC#CCN1CCC[C@@H]1CF.O=C(O)C(=O)O             38.6

----------
- Target: Muscarinic acetylcholine receptor (Rattus norvegicus) (UniProt P08482+P08483+P08485+P08911+P10980)
- Method description: Displacement of [3H]N-methylscopolamine ([3H]NMS) binding at muscarinic acetylcholine receptor in rat cerebral cortical membranes
- Type: cell membranes
- Set-up: concentration or dose not given beside the values
- Particulars: Membrane
Quick reference for Displacement among some compounds
Readout name: Displacement

> print(dat)
                                   compound  endpoint.result
1  CC(=O)N(C)CC#CCN1CCCCC1CO.O=C(O)C(=O)O (stereo not drawn)            31.2%
2                   CC(=O)N(C)CC#CCN1CCCCC1            83.4%
3  CCOC(=O)C1CCCCN1CC#CCN(C)C(C)=O.O=C(O)C(=O)O (stereo not drawn)             5.8%

----------
- Target: Muscarinic acetylcholine receptor (Rattus norvegicus) (UniProt P08482+P08483+P08485+P08911+P10980)
- Method description: Displacement of [3H]N-methylscopolamine ([3H]NMS) binding at muscarinic acetylcholine receptor in rat cerebral cortical membranes
- Type: cell membranes
- Parameters: concentration or dose not given beside the values
- Particulars: Membrane
compounds and their reported Displacement
Readout name: Displacement (%)

> print(dat)
                                    compound  endpoint.result
 1                CC(=O)N(C)CC#CCN1CCC(O)CC1              3.8
 2  CC(=O)N(C)CC#CCN1CCCC(CO)C1 (configuration not stated)               45
 3  CC(=O)N(C)CC#CCN1CCC(O)C1.O=C(O)C(=O)O (configuration not stated)             21.5
 4  CC(=O)N(C)CC#CCN1CCC[C@H]1CF.O=C(O)C(=O)O             53.8
 5  CCOC(=O)C1CCN(CC#CCN(C)C(C)=O)CC1.O=C(O)C(=O)O             47.5
 6  CC(=O)N(C)CC#CCN1CCC(CCO)CC1.O=C(O)C(=O)O             16.3
 7                CC(=O)N(C)CC#CCN1CCC(F)CC1             18.8
 8              CC(=O)N(C)CC#CCN1CCN(CCO)CC1              9.3
 9  CC(=O)N(C)CC#CCN1CCC(OC(=O)c2ccccc2)C1.O=C(O)C(=O)O (configuration not stated)             57.4
10                    CC(=O)N(C)CC#CCN1CCCC1             89.4
11  CC(=O)N(C)CC#CCN1CCC(F)C1.O=C(O)C(=O)O (configuration not stated)               29
12  CC(=O)N(C)CC#CCN1CCC[C@@H]1CF.O=C(O)C(=O)O             67.2
